- Assay explanation: Half life in iv dosed rabbit plasma
- Assay type: ADME, organism-based, Oryctolagus cuniculus
Endpoint: half-life

Exam item: Name the recorded half-life for CO[C@H]1/C=C/O[C@@]2(C)Oc3c(C)c(O)c4c(O)c(c(/C=N/N5CCC(N(C)C6([C@@H]7CCN(c8c(F)cn9c(=O)c(C(=O)O)cc(C%10CC%10)c9c8C)C7)CC6)CC5)c(O)c4c3C2=O)NC(=O)/C(C)=C\C=C\[C@H](C)[C@H](O)[C@@H](C)[C@@H](O)[C@@H](C)[C@H](OC(C)=O)[C@@H]1C .
Marked response: 24 to 246 min

====

- Assay explanation: Plasma clearance in iv dosed rabbit
- Assay type: ADME, organism-based, Oryctolagus cuniculus
Endpoint: clearance

Exam item: Give the measured clearance of CO[C@H]1/C=C/O[C@@]2(C)Oc3c(C)c(O)c4c(O)c(c(/C=N/N5CCC(N(C)C6([C@@H]7CCN(c8c(F)cn9c(=O)c(C(=O)O)cc(C%10CC%10)c9c8C)C7)CC6)CC5)c(O)c4c3C2=O)NC(=O)/C(C)=C\C=C\[C@H](C)[C@H](O)[C@@H](C)[C@@H](O)[C@@H](C)[C@H](OC(C)=O)[C@@H]1C .
Marked response: 1.17 to 6 mL/min/kg

====

- Assay explanation: Half life in iv dosed rat plasma
- Type: ADME, organism-based
Endpoint: half-life

Exam item: # input compound: CO[C@H]1/C=C/O[C@@]2(C)Oc3c(C)c(O)c4c(O)c(c(/C=N/N5CCC(N(C)C6([C@@H]7CCN(c8c(F)cn9c(=O)c(C(=O)O)cc(C%10CC%10)c9c8C)C7)CC6)CC5)c(O)c4c3C2=O)NC(=O)/C(C)=C\C=C\[C@H](C)[C@H](O)[C@@H](C)[C@@H](O)[C@@H](C)[C@H](OC(C)=O)[C@@H]1C ; wanted: its half-life
Marked response: 0.4 to 4.1 h

====

- Assay explanation: Half life in iv dosed mouse plasma
- Type: ADME, organism-based
Endpoint: half-life

Exam item: For CO[C@H]1/C=C/O[C@@]2(C)Oc3c(C)c(O)c4c(O)c(c(/C=N/N5CCC(N(C)C6([C@@H]7CCN(c8c(F)cn9c(=O)c(C(=O)O)cc(C%10CC%10)c9c8C)C7)CC6)CC5)c(O)c4c3C2=O)NC(=O)/C(C)=C\C=C\[C@H](C)[C@H](O)[C@@H](C)[C@@H](O)[C@@H](C)[C@H](OC(C)=O)[C@@H]1C , what is its reported half-life?
Marked response: 0.4 to 4.1 h

====

Form field: MIC (one value per entry).
- System: Staphylococcus aureus
- Assay explanation: Antimicrobial activity against Staphylococcus aureus isogenic forms expressing parC S80F mutant
- Format: functional

Please review the following examples before continuing.
>>> val("O=C(O)c1cn(C2CC2)c2cc(N3CCNCC3)c(F)cc2c1=O")
"2 µg/mL"
>>> val("C[C@H]1COc2c(N3CCN(C)CC3)c(F)cc3c(=O)c(C(=O)O)cn1c23.C[C@H]1COc2c(N3CCN(C)CC3)c(F)cc3c(=O)c(C(=O)O)cn1c23.O")
"1 µg/mL"
>>> val("COc1c(N2CCNC(C)C2)c(F)cc2c(=O)c(C(=O)O)cn(C3CC3)c12 (centres undefined)")
"0.25 µg/mL"

Exam item: Entry CO[C@H]1/C=C/O[C@@]2(C)Oc3c(C)c(O)c4c(O)c(c(/C=N/N5CCN(C)CC5)c(O)c4c3C2=O)NC(=O)/C(C)=C\C=C\[C@H](C)[C@H](O)[C@@H](C)[C@@H](O)[C@@H](C)[C@H](OC(C)=O)[C@@H]1C : reported MIC = ?
Marked response: 0.008 µg/mL

====

- Assay explanation: Volume of distribution in iv dosed dog
- Assay setup: in vivo
Endpoint: Vd

Exam item: Look at this compound and give its reported Vd. CO[C@H]1/C=C/O[C@@]2(C)Oc3c(C)c(O)c4c(O)c(c(/C=N/N5CCC(N(C)C6([C@@H]7CCN(c8c(F)cn9c(=O)c(C(=O)O)cc(C%10CC%10)c9c8C)C7)CC6)CC5)c(O)c4c3C2=O)NC(=O)/C(C)=C\C=C\[C@H](C)[C@H](O)[C@@H](C)[C@@H](O)[C@@H](C)[C@H](OC(C)=O)[C@@H]1C
Marked response: 0.09 to 0.17 L/kg
